Notes on AC50 obtained with UniProt P08913.
Sequence (P08913 whole entry): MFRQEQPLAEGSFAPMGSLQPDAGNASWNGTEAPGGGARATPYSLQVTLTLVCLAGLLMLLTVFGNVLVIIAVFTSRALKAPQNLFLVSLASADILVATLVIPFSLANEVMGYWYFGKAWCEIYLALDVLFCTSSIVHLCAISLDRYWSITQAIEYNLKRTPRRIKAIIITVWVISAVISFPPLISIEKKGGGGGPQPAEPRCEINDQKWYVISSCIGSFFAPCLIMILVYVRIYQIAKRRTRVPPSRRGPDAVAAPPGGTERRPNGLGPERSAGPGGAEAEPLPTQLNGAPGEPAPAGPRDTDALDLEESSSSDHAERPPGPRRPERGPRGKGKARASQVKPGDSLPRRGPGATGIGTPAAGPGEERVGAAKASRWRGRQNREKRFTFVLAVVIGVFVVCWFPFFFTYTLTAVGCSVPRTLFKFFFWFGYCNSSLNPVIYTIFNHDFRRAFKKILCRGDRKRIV

Below, each entry is followed by its recorded AC50 result.
Nc1nc(N)nc(Nc2ccc([As]3SCC(CO)S3)cc2)n1 (stereo not given) [MELARSOPROL]
> 30 µM
CN(C)CCCN1C(=O)c2cc([N+](=O)[O-])ccc2Oc2ccccc21
28.4 µM
CCC[C@@H]1C[C@@H](C(=O)N[C@@H]([C@H]2O[C@H](SC)[C@H](OP(=O)(O)O)[C@@H](O)[C@H]2O)[C@H](C)Cl)N(C)C1 [CLINDAMYCIN PHOSPHATE]
> 30 µM

Query: Report its AC50 with UniProt P08913 as the test system: N[C@@H](CSSC[C@H](N)C(=O)O)C(=O)O [CYSTINE]
Reply: > 30 µM

Query: Report its AC50 with UniProt P08913 as the test system: COc1nccnc1NS(=O)(=O)c1ccc(N)cc1
Reply: > 30 µM
